TEST SYSTEM: Acetylcholinesterase (Mus musculus) (UniProt P21836)
TEST CONDITIONS: Brain, at 5 µM
REPORTED PROPERTY: inhibition (%)
Give bare numbers, in %.

O=C(Oc1cccc(/C=C2\Cc3ccccc3C2=O)c1)c1cc(C(F)(F)F)cc(C(F)(F)F)c1	46.8

The following compounds each have a reported value; give each one's inhibition.
1. O=C(Oc1cccc(/C=C2\Cc3ccccc3C2=O)c1)c1ccc(CCl)cc1
2. O=C(Oc1cccc(/C=C2\Cc3ccccc3C2=O)c1)c1ccc([N+](=O)[O-])cc1
3. O=C(Oc1cccc(/C=C2\Cc3ccccc3C2=O)c1)c1ccc(F)cc1

// result
66.1
68.3
35.5

// query # lookup: inhibition of `COc1cc(C(=O)Oc2cccc(/C=C3\Cc4ccccc4C3=O)c2)cc(OC)c1OC`
// result 32.2

---

TEST SYSTEM: Acetylcholinesterase (Mus musculus) (UniProt P21836)
MEASUREMENT PROTOCOL: Inhibition of AchE in albino LACA mouse brain at 10^-3 M using acetylthiocholine iodide as substrate incubated for 10 mins measured for 2 mins by Ellman's method relative to control
REPORTED PROPERTY: inhibition
Reply with a number, then the unit it belongs to.

Some molecules with recorded inhibition:
COc1cc2c(cc1OC)C(=O)C(CC1CCN(CC(=O)Cc3nc4ccc([N+](=O)[O-])cc4s3)CC1)C2 (stereo not drawn)	5.9%
COc1ccc2nc(CC(=O)CN3CCC(CC4Cc5cc(OC)c(OC)cc5C4=O)CC3)sc2c1 (stereo not drawn)	3.72%
COc1cc2c(cc1OC)C(=O)C(CC1CCN(CC(=O)Cc3nc4ccc(Cl)cc4s3)CC1)C2 (stereo not drawn)	2.13%
COc1ccc(NC(=O)CN2CCC(CC3Cc4cc(OC)c(OC)cc4C3=O)CC2)cc1 (stereo not drawn)	12.8%
COc1cc2c(cc1OC)C(=O)C(CC1CCN(CC(=O)Nc3ccc(C)cc3)CC1)C2 (stereo not drawn)	13.9%
COc1cc2c(cc1OC)C(=O)C(CC1CCN(CC(=O)Nc3ccc(F)cc3)CC1)C2 (stereo not drawn)	6.19%
COc1cc2c(cc1OC)C(=O)C(CC1CCN(CC(=O)Nc3ccc([N+](=O)[O-])cc3)CC1)C2 (stereo not drawn)	8.67%

Please find the next molecule below.
// query # lookup: inhibition of COc1cc2c(cc1OC)C(=O)C(CC1CCN(CC(=O)Cc3nc4ccc(C)cc4s3)CC1)C2 (stereo not drawn)
// result 5.82%

---

TEST SYSTEM: Acetylcholinesterase (Mus musculus) (UniProt P21836)
Sequence (whole entry): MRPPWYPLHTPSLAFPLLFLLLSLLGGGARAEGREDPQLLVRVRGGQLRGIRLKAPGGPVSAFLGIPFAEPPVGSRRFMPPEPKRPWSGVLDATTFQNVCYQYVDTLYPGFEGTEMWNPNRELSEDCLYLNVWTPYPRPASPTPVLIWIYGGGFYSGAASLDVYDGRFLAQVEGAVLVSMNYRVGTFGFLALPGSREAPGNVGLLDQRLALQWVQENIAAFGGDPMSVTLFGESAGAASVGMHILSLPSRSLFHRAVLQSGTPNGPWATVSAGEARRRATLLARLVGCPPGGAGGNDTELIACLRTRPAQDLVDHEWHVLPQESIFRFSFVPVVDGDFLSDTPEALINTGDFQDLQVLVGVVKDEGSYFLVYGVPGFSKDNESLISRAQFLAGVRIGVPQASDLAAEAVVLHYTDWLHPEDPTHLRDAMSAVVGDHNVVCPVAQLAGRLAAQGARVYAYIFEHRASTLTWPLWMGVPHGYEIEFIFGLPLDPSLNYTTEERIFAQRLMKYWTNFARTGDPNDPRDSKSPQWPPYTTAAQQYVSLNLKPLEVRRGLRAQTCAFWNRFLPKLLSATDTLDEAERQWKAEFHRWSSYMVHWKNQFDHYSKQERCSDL
TEST CONDITIONS: Brain, at 50 µM
REPORTED PROPERTY: inhibition
Reply with a number, then the unit it belongs to.

Some compounds with recorded inhibition:
COc1ccc(C(=O)Oc2cccc(/C=C3\Cc4ccccc4C3=O)c2)cc1	48.4%
O=C(Oc1cccc(/C=C2\Cc3ccccc3C2=O)c1)c1cccc(CCl)c1	59.3%
O=C(Oc1cccc(/C=C2\Cc3ccccc3C2=O)c1)c1cccc(OC(F)(F)F)c1	78.2%
O=C(Oc1cccc(/C=C2\Cc3ccccc3C2=O)c1)c1cc(C(F)(F)F)cc(C(F)(F)F)c1	67.7%
O=C(Oc1cccc(/C=C2\Cc3ccccc3C2=O)c1)c1ccc([N+](=O)[O-])cc1	51%

The following compounds each have a reported value; give each one's inhibition.
1. COc1cc(C(=O)Oc2cccc(/C=C3\Cc4ccccc4C3=O)c2)cc(OC)c1OC
2. O=C(Oc1cccc(/C=C2\Cc3ccccc3C2=O)c1)c1cc(Cl)cc(Cl)c1
3. O=C(Oc1cccc(/C=C2\Cc3ccccc3C2=O)c1)c1ccc(CCl)cc1

// result
1. 32.9%
2. 51.6%
3. 53.3%

The following compounds each have a reported value; give each one's inhibition.
1. O=C(Oc1cccc(/C=C2\Cc3ccccc3C2=O)c1)c1ccc(F)cc1
2. O=C(Oc1cccc(/C=C2\Cc3ccccc3C2=O)c1)c1ccccc1F
3. O=C(Oc1cccc(/C=C2\Cc3ccccc3C2=O)c1)c1ccccc1

// result
54.8%
32.9%
67.7%

---

TEST SYSTEM: UniProt:P21836
Sequence (P21836 whole entry): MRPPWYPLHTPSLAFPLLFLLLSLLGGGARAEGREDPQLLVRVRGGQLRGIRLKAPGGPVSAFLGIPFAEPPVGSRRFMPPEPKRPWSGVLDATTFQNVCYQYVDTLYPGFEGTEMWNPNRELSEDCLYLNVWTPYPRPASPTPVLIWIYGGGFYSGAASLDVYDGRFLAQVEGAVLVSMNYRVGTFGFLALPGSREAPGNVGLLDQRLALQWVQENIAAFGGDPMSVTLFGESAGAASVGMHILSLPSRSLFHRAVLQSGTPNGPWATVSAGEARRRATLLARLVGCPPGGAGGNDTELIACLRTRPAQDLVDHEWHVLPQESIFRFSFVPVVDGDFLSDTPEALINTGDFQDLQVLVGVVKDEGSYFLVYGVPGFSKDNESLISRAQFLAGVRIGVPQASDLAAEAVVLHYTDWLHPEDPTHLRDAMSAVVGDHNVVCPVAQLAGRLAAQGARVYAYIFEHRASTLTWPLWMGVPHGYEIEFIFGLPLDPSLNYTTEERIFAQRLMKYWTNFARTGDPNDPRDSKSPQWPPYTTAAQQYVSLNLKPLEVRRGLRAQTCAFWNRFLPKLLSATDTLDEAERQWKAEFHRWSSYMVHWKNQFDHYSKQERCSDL
REPORTED PROPERTY: pIC50
One number for each entry, as −log10 of the molar value.

The following molecules each have a reported value; give each one's pIC50.
1. O=C(Oc1cccc(/C=C2\Cc3ccccc3C2=O)c1)c1cccc(CCl)c1
2. O=C(Oc1cccc(/C=C2\Cc3ccccc3C2=O)c1)c1cc(C(F)(F)F)cc(C(F)(F)F)c1
3. O=C(Oc1cccc(/C=C2\Cc3ccccc3C2=O)c1)c1ccccc1
4. O=C(Oc1cccc(/C=C2\Cc3ccccc3C2=O)c1)c1ccccc1F
5. O=C(Oc1cccc(/C=C2\Cc3ccccc3C2=O)c1)c1ccc([N+](=O)[O-])cc1

// result
[4.57, 4.92, 4.46, 4.85, 4.31]

---

Answer each item with its documented pIC50.
TEST SYSTEM: Acetylcholinesterase (Mus musculus, UniProt P21836)
Sequence (P21836 whole entry): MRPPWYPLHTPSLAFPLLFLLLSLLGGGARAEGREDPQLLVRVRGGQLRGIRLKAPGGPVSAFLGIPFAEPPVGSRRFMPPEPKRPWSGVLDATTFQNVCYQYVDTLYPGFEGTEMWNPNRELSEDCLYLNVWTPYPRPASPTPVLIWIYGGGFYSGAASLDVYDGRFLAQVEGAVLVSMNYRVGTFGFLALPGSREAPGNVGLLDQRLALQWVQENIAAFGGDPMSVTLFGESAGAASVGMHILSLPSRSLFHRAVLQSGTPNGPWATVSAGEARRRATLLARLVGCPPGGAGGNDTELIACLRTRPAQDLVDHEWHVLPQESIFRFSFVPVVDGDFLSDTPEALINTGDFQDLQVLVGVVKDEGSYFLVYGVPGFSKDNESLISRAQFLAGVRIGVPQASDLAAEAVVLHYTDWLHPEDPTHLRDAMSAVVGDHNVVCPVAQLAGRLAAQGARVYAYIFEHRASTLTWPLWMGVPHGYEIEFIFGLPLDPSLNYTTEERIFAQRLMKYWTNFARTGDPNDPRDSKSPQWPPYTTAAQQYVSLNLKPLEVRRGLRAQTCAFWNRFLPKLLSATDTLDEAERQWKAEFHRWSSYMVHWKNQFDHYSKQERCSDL
Answers are plain numbers, as −log10 of the molar value.

O=C(Oc1cccc(/C=C2\Cc3ccccc3C2=O)c1)c1ccc(F)cc1	4.39

The following compounds each have a reported value; give each one's pIC50.
1. O=C(Oc1cccc(/C=C2\Cc3ccccc3C2=O)c1)c1cccc(OC(F)(F)F)c1
2. COc1ccc(C(=O)Oc2cccc(/C=C3\Cc4ccccc4C3=O)c2)cc1
3. O=C(Oc1cccc(/C=C2\Cc3ccccc3C2=O)c1)c1cc(Cl)cc(Cl)c1
4. O=C(Oc1cccc(/C=C2\Cc3ccccc3C2=O)c1)c1ccc(CCl)cc1
5. COc1cc(C(=O)Oc2cccc(/C=C3\Cc4ccccc4C3=O)c2)cc(OC)c1OC

// result
1. 4.91
2. 4.41
3. 4.36
4. 4.10
5. 4.85
